# testTarget: CCK receptor (brain, cerebral cortex) (Cavia porcellus, UniProt H0VZC5)
# Construct: Cerebral cortex was dissected and used as a receptor source; from tissue; host or cells: guinea pig cerebral cortex membranes (male Hartley)
# experimentDescription: biochemical
# Format: binding, Male Hartley guinea pigs
# experimentalContext: guinea pig cerebral cortex, ^125 I-CCK-33, 25° C., 2 hours; read-out: IC50 ^125 I-CCK Brain
Binary call on IC50 with cut-off 1000 nM: strictly below means fulfilled, and equality or higher means not fulfilled.

# TODO verify IC50 < 1000 nM strictly for this molecule: COc1cccc(NC(=O)NC2N=C(c3ccccc3F)c3ccccc3N(C)C2=O)c1 (centres unmarked) [Example 246]
fulfilled

# TODO verify IC50 < 1000 nM strictly for this molecule: CCN(CC)C(=O)CN1C(=O)C(NC(=O)Nc2ccccc2Cl)N=C(c2ccccc2)c2ccccc21 (centres unmarked) [Example 286]
fulfilled

# TODO verify IC50 < 1000 nM strictly for this molecule: CN1C(=O)C(Cc2cn(C)c3ccccc23)N=C(c2ccccc2)c2ccccc21 (centres unmarked) [Example 200]
not fulfilled

# TODO verify IC50 < 1000 nM strictly for this molecule: CN1C(=O)C(NC(=O)Nc2ccccc2)N=C(c2ccccc2)c2ccccc21 (centres unmarked) [Example 250]
fulfilled

# TODO verify IC50 < 1000 nM strictly for this molecule: CCN(CC)C(=O)C(C)N1C(=O)C(NC(=O)OCc2ccccc2)N=C(c2ccccc2)c2ccccc21 (centres unmarked) [Example 244]
fulfilled

# TODO verify IC50 < 1000 nM strictly for this molecule: CSC1=N[C@@H](Cc2cn(C)c3ccccc23)C(=O)N(C)c2ccccc21 [Example 7]
not fulfilled

# TODO verify IC50 < 1000 nM strictly for this molecule: O=C(NC1N=C(c2ccccc2F)c2ccccc2NC1=O)c1ccc2ccccc2n1 (racemic) [Example 116]
not fulfilled

###

Answer each item with its documented pIC50.
# testTarget: CCK receptor (brain, cerebral cortex) (Cavia porcellus, UniProt H0VZC5)
# Construct: Cerebral cortex was dissected and used as a receptor source; from tissue; host or cells: guinea pig cerebral cortex membranes (male Hartley)
# Sequence (H0VZC5 1-426): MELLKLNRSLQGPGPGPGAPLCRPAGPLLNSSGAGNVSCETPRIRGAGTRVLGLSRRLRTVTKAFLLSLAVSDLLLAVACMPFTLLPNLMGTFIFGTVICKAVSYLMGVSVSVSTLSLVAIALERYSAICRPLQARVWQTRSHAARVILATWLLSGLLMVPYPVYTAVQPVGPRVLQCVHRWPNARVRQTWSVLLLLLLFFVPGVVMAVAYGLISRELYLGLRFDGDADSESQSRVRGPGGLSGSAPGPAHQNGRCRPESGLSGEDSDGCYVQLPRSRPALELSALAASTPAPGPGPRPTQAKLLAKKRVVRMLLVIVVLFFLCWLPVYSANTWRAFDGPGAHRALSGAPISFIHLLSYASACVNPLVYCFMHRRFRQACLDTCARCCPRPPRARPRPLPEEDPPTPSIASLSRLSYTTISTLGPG
# experimentDescription: biochemical
# Format: binding, Male Hartley guinea pigs
# experimentalContext: IC50 ^125 I-CCK Brain, guinea pig cerebral cortex, ^125 I-CCK-33, 25° C., 2 hours
pIC50 is defined as minus the log10 of a concentration measured in mol/L.

Give pIC50 only, for COc1cccc(NC(=O)NC2N=C(c3ccccc3)c3ccccc3NC2=S)c1 (stereo not drawn) , using CCK receptor (brain, cerebral cortex) (Cavia porcellus, UniProt H0VZC5) data.
6.01

Give pIC50 only, for Cc1ccc(NC(=O)N[C@@H]2N=C(c3ccccc3)c3ccccc3N(C)C2=O)cc1 , using CCK receptor (brain, cerebral cortex) (Cavia porcellus, UniProt H0VZC5) data.
8.19

Give pIC50 only, for O=C1Nc2ccccc2C(c2ccccc2)=NC1NCCc1c[nH]c2ccccc12 (racemic) , using CCK receptor (brain, cerebral cortex) (Cavia porcellus, UniProt H0VZC5) data.
4.00

Give pIC50 only, for O=C(NC1N=C(c2ccccc2)c2ccccc2NC1=O)c1ccc(O)cc1 (racemic) , using CCK receptor (brain, cerebral cortex) (Cavia porcellus, UniProt H0VZC5) data.
4.00

Give pIC50 only, for O=C(NC1N=C(c2ccccc2)c2ccccc2NC1=O)c1c[nH]c2ccccc12 (racemic) , using CCK receptor (brain, cerebral cortex) (Cavia porcellus, UniProt H0VZC5) data.
5.08

Give pIC50 only, for O=C(NC1N=C(c2ccccc2)c2ccccc2NC1=O)c1cccc2ccccc12 (racemic) , using CCK receptor (brain, cerebral cortex) (Cavia porcellus, UniProt H0VZC5) data.
4.92
